IC50 values, listed per item
- test-details: Cytotoxicity against mouse J774.G8 cells after 48 hrs by MTT assay
- Type: functional, cell-based
- measurement-conditions: J774.G8, 48 h

Query: Which IC50 is listed for NNC(=O)c1ccncc1 [ISONIAZID] ?
Response: > 64 µg/mL

Query: // returns reported IC50 for input CO[C@H]1/C=C/O[C@@]2(C)Oc3c(C)c(O)c4c(O)c(c(/C=N/N5CCN(C)CC5)c(O)c4c3C2=O)NC(=O)/C(C)=C\C=C\[C@H](C)[C@H](O)[C@@H](C)[C@@H](O)[C@@H](C)[C@H](OC(C)=O)[C@@H]1C [RIFAMPIN]
Response: > 64 µg/mL

Now look at this one.
Query: Give the measured IC50 of O=C(O)[C@H](C1CCCCC1)N1C(=O)/C(=C/c2ccc(-c3ccc(F)c(C(F)(F)F)c3)cc2)SC1=S .
Response: > 64 µg/mL

* * *

pIC50 overview
- assay-system: Triple specificity protein phosphatase PtpB (Mycobacterium tuberculosis (strain ATCC 25618 / H37Rv), UniProt I6WXK4)
- Sequence (I6WXK4 whole entry): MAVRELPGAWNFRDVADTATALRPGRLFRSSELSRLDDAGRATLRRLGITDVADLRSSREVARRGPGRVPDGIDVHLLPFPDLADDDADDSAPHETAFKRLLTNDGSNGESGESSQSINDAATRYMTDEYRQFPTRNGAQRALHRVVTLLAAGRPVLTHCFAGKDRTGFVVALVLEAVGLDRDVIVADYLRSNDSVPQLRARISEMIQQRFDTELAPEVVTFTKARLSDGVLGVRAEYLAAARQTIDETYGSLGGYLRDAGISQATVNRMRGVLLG
- test-details: Inhibition of Mycobacterium tuberculosis H37Rv ptpB expressed in Escherichia coli BL21(DE3) using pNPP as substrate preincubated for 10 mins followed by substrate addition and measured for 5 mins by spectrophotometer analysis
Answer as the number alone; pIC50 is minus log10 of concentration in mol/L.

Query: Entry under review: CCCC[C@@H](C(=O)O)N1C(=O)/C(=C/c2ccc(-c3cccc(OC)c3)cc2)SC1=S . Reported pIC50?
Response: 6.12

Query: Value lookup for pIC50; key = CCCC[C@@H](C(=O)O)N1C(=O)/C(=C/c2ccc(-c3ccc(F)c(C(F)(F)F)c3)c3ccccc23)SC1=S
Response: 6.17

Others:
Query: Which pIC50 reading was recorded for the compound CCCC[C@@H](C(=O)O)N1C(=O)/C(=C/c2ccc(-c3ccc(C(F)(F)F)cc3)cc2)SC1=S ?
Response: 6.07

* * *

// reported inhibition per item
- assay-system: Triple specificity protein phosphatase PtpB (Mycobacterium tuberculosis (strain ATCC 25618 / H37Rv))
- Sequence (whole entry): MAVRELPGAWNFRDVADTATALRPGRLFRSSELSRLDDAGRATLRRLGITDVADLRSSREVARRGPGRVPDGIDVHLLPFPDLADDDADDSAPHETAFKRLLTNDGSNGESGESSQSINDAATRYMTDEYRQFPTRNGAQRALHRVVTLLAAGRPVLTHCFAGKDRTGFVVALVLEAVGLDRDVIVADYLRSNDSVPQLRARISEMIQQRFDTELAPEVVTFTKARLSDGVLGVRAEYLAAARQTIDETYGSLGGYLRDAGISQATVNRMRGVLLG
- test-details: Inhibition of Mycobacterium tuberculosis H37Rv ptpB expressed in Escherichia coli BL21(DE3) at 50 uM using pNPP as substrate preincubated for 10 mins followed by substrate addition and measured for 5 mins by spectrophotometer analysis relative to control
- measurement-conditions: time 15.0 min
Kindly answer with a numeric value in %, unit omitted.

Illustrative cases are given below, each with its answer.
Query: Sample CCCC[C@@H](C(=O)O)N1C(=O)/C(=C/c2ccc(-c3cccc(OC)c3)cc2)SC1=S — what was its inhibition?
Response: 100

Query: Look up inhibition: O=C(O)CN1C(=O)/C(=C/c2ccc(-c3ccc(F)c(C(F)(F)F)c3)cc2)SC1=S
Response: 99.4

Query: Which inhibition reading was recorded for the compound CCCC[C@@H](C(=O)O)N1C(=O)/C(=C/c2ccc(-c3ccccc3)cc2)SC1=S ?
Response: 94

Please examine the following record next.
Query: Which inhibition is listed for CCCC[C@@H](C(=O)O)N1C(=O)/C(=C/c2ccc(-c3ccc(Cl)s3)cc2)SC1=S ?
Response: 98.4
